Recorded MIC for the following compounds
Test system: Staphylococcus aureus (Sa)
procedure-details: Minimum inhibitory concentration (MIC), bacteria in nutrient agar
Assay type: cell-based, Staphylococcus aureus ATCC 6538
condition-description: nutrient agar pH 8.2, 30° C., 48 hours
Expressed in µg/mL, but write only the number.

Consider the following illustrative entries.
N#CSCSc1nnnn1-c1ccc(F)cc1 [V]; 50
N#CSCSc1nnnn1-c1ccc(Cl)cc1 [III]; 50
N#CSCSc1nnnn1-c1ccc(C#N)cc1 [XII]; 100
Cc1ccc(-n2nnnc2SCSC#N)cc1 [VII]; 50
N#CSCSc1nnnn1C1CCCCC1 [X]; 50

Next, consider the following compound.
[ask] Notebook: pull reported MIC for Staphylococcus aureus (Sa), entry Cc1cccc(-n2nnnc2SCSC#N)c1 [VI]
[reply] 50
